Origin of values: patent US7662853B2

# Test system: T-cells
# procedure_details: T-cell proliferation (3H-thymidine incorporation, SI)
# Assay type: cell-based, C57BL/6 mice
# experimental_context: 1 μg/ml, 7th day, CPM in sample/CPM in control
assay_readout: SI

- molecule: "CC/C=C\\C/C=C\\C/C=C\\CCCCCCCC(=O)OC(COC(C)=O)COC(=O)CCCCCCCCCCCCCCC (stereo not shown)"
  test_value: 1.98
- molecule: "CCCCCCCC/C=C\\CCCCCCCC(=O)OC(COC(C)=O)COC(=O)CCCCCCCCCCCCCCC (stereo not shown)"
  test_value: 2.03
- molecule: "CCCCC/C=C\\C/C=C\\C/C=C\\C/C=C\\CCCC(=O)OC(COC(C)=O)COC(=O)CCCCCCCCCCCCCCC (stereo not shown)"
  test_value: 2.02
- molecule: "CCCCCCCC/C=C\\CCCCCCCC(=O)OCC(COC(C)=O)OC(=O)CCCCCCCCCCCCCCC (stereo not shown)"
  test_value: 2.01

---

# System: Monocytes
# procedure_details: Monocytes proliferation (3H-thymidine incorporation, SI)
# Assay type: cell-based
# experimental_context: human monocytes, 1 μg/ml, 7th day
The entries below are paired with their reported SI (±S.E).
assay_readout: SI (±S.E)

- molecule: "CCCCCCCC/C=C\\CCCCCCCC(=O)OC(COC(C)=O)COC(=O)CCCCCCCCCCCCCCC (stereo not shown) [Compound 2, 1-palmitoyl-2-oleoyl-3-acetylglycerol]"
  assay_readout: "SI (±S.E)"
  test_value: 10.42
- molecule: "CCCCCCCC/C=C\\CCCCCCCC(=O)OCC(COC(C)=O)OC(=O)CCCCCCCCCCCCCCC (stereo not shown) [Compound 1, 1-oleoyl-2-2palmitoyl-3-acetylglycerol]"
  assay_readout: "SI (±S.E)"
  test_value: 9.97
- molecule: "CCCCC/C=C\\C/C=C\\C/C=C\\C/C=C\\CCCC(=O)OC(COC(C)=O)COC(=O)CCCCCCCCCCCCCCC (stereo not shown) [Compound 5]"
  assay_readout: "SI (±S.E)"
  test_value: 9.75
- molecule: "CC/C=C\\C/C=C\\C/C=C\\CCCCCCCC(=O)OC(COC(C)=O)COC(=O)CCCCCCCCCCCCCCC (stereo not shown) [Compound 4]"
  assay_readout: "SI (±S.E)"
  test_value: 10.21
